// reported Kd for each item listed
assay: Binding affinity to TPP riboswitch in Bacillus subtilis
Measured property: Kd (nM)

molecule="Cc1ncc(C[n+]2csc(CCOP(=O)([O-])OP(=O)(O)O)c2C)c(N)n1 [THIAMIN DIPHOSPHATE]" reading_unit=nM recorded_value=50
molecule=Cc1ncc(C[n+]2cccc(CCOP(=O)([O-])OP(=O)(O)O)c2C)c(N)n1 reading_unit=nM recorded_value=160

---

test: Binding affinity to guanine riboswitch in Bacillus subtilis
// reported Kd for each item listed
Measured property: Kd (nM)

molecule=Nc1nc2[nH]cnc2/c(=N\O)[nH]1 recorded_value=20
molecule=Nc1nc(N)c(N)c(=O)[nH]1 recorded_value=100
molecule="Nc1nc2[nH]cnc2c(=O)[nH]1 [GUANINE]" recorded_value=5
molecule=CC(=O)Nc1nc(=O)c2[nH]cnc2[nH]1 recorded_value=0.5

---

assay: Binding affinity to lysC riboswitch in Bacillus subtilis
pKd: −log10 of the molar value.
// reported pKd for each item listed
Measured property: pKd

compound=N=C(N)NCCCC[C@H](N)C(=O)O recorded_value=5.15
compound=NCCOC[C@H](N)C(=O)O recorded_value=4.89
compound=NCCSC[C@H](N)C(=O)O recorded_value=4.52
compound="NC/C=C/CC(N)C(=O)O (racemic)" recorded_value=6.01
compound="NCCCC[C@H](N)C(=O)O [LYSINE]" recorded_value=6.44

---

assay: Binding affinity to thiM riboswitch in Escherichia coli
Measured property: Kd (µM)

molecule="Cc1ncc(C[n+]2csc(CCOP(=O)([O-])OP(=O)(O)O)c2C)c(N)n1 [THIAMIN DIPHOSPHATE]" recorded_value=0.6

---

experiment: Binding affinity to thiC riboswitch in Escherichia coli
Measured property: Kd (µM)

molecule="Cc1ncc(C[n+]2csc(CCOP(=O)([O-])OP(=O)(O)O)c2C)c(N)n1 [THIAMIN DIPHOSPHATE]" measured_property=Kd reading_unit=µM recorded_value=0.1
